Attribution: paper PMC6001238

Attribute: MIC
Tested on: S. aureus VISA/HIP5827
assay-protocol: MIC, broth microdilution, vancomycin-intermediate S. aureus VISA HIP5827
Assay type: cell-based, Staphylococcus aureus
conditions: Staphylococcus aureus VISA/HIP5827; read-out: MIC
Method: The minimum inhibitory concentration (MIC) was determined using the broth microdilution method according to the antimicrobial susceptibility testing standards of the clinical and laboratory standards institute ([Clinical and Laboratory Standards Institute [CLSI], 2012]). Ultrapure water and non-inoculated broth were used as controls. In one case, a final concentration of 10 μM vancomycin was included with the vancomycin analog or control antibiotic.
Give just the numeric value; µM need not be written.

Take a look at these entries with their results.
compound	test-value
CN[C@H](CC(C)C)C(=O)N[C@H]1C(=O)N[C@@H](CC(N)=O)C(=O)N[C@H]2C(=O)N[C@H]3C(=O)N[C@H](C(=O)N[C@H](C(=O)NCC(=O)Nc4ccc5cc6ccccc6cc5c4)c4cc(O)cc(O)c4-c4cc3ccc4O)[C@H](O)c3ccc(c(Cl)c3)Oc3cc2cc(c3O[C@@H]2O[C@H](CO)[C@@H](O)[C@H](O)[C@H]2O[C@H]2C[C@](C)(N)[C@H](O)[C@H](C)O2)Oc2ccc(cc2Cl)[C@H]1O [Vanc-59]	0.39
CN[C@H](CC(C)C)C(=O)N[C@H]1C(=O)N[C@@H](CC(N)=O)C(=O)N[C@H]2C(=O)N[C@H]3C(=O)N[C@H](C(=O)N[C@H](C(=O)NCC(=O)Nc4ccc(C(F)(F)F)cc4)c4cc(O)cc(O)c4-c4cc3ccc4O)[C@H](O)c3ccc(c(Cl)c3)Oc3cc2cc(c3O[C@@H]2O[C@H](CO)[C@@H](O)[C@H](O)[C@H]2O[C@H]2C[C@](C)(N)[C@H](O)[C@H](C)O2)Oc2ccc(cc2Cl)[C@H]1O [Vanc-40]	1.56
CN[C@H](CC(C)C)C(=O)N[C@H]1C(=O)N[C@@H](CC(N)=O)C(=O)N[C@H]2C(=O)N[C@H]3C(=O)N[C@H](C(=O)N[C@H](C(=O)NCCNC(=O)/C=C/c4ccc(OC)cc4)c4cc(O)cc(O)c4-c4cc3ccc4O)[C@H](O)c3ccc(c(Cl)c3)Oc3cc2cc(c3O[C@@H]2O[C@H](CO)[C@@H](O)[C@H](O)[C@H]2O[C@H]2C[C@](C)(N)[C@H](O)[C@H](C)O2)Oc2ccc(cc2Cl)[C@H]1O [Vanc-36]	0.39
CN[C@H](CC(C)C)C(=O)N[C@H]1C(=O)N[C@@H](CC(N)=O)C(=O)N[C@H]2C(=O)N[C@H]3C(=O)N[C@H](C(=O)N[C@H](C(=O)NCC(=O)Nc4ccc(NS(=O)(=O)c5ccccc5)cc4)c4cc(O)cc(O)c4-c4cc3ccc4O)[C@H](O)c3ccc(c(Cl)c3)Oc3cc2cc(c3O[C@@H]2O[C@H](CO)[C@@H](O)[C@H](O)[C@H]2O[C@H]2C[C@](C)(N)[C@H](O)[C@H](C)O2)Oc2ccc(cc2Cl)[C@H]1O [Vanc-60]	0.78

Here is another compound to look at.
Query block: # return MIC for C#Cc1ccc(/C=C/C(=O)NCCNC(=O)[C@H]2NC(=O)[C@H]3NC(=O)[C@H](NC(=O)[C@@H]4NC(=O)[C@H](CC(N)=O)NC(=O)[C@H](NC(=O)[C@@H](CC(C)C)NC)[C@H](O)c5ccc(c(Cl)c5)Oc5cc4cc(c5O[C@@H]4O[C@H](CO)[C@@H](O)[C@H](O)[C@H]4O[C@H]4C[C@](C)(N)[C@H](O)[C@H](C)O4)Oc4ccc(cc4Cl)[C@H]3O)c3ccc(O)c(c3)-c3c(O)cc(O)cc32)cc1 [Vanc-Q] , test system: S. aureus VISA/HIP5827
Result block: 1.56
